# Tested on: S.aureus strain ATCC 25923
# measurement-notes: Minimal Inhibitory Concentration, microtiter broth dilution
# Format: cell-based
# test-settings: Mueller Hinton broth, 16-20 hours at 37° C.
Where a SMILES comes first, the peptide text is derived from it. The star is where a group is joined. Octanoyl = CCCCCCCC(=O)*
measured-metric: Minimal Inhibitory Concentration S

The examples below pair each entry with its known result.
CCCCCCCC(=O)N[C@@H](CCCCN)C(=O)N[C@@H](CCCCN)C(=O)N[C@@H](CC(C)C)C(=O)N[C@@H](C)C(=O)N[C@@H](CCCCN)C(=O)N[C@@H](CC(C)C)C(=O)N[C@@H](C)C(=O)N[C@@H](CCCCN)C(=O)N[C@@H](CCCCN)C(=O)N[C@@H](CC(C)C)C(=O)N[C@@H](C)C(N)=O [Oct-(SEQ ID NO: 123)-NH2] (Octanoyl-KKLAKLAKKLA-NH2) : 32 µg/mL
CCCCCCCC(=O)N[C@@H](CCCCN)C(=O)N[C@@H](CC(C)C)C(=O)N[C@@H](C)C(=O)N[C@@H](CCCCN)C(=O)N[C@@H](CC(C)C)C(=O)N[C@@H](C)C(=O)N[C@@H](CCCCN)C(=O)N[C@@H](CCCCN)C(=O)N[C@@H](CC(C)C)C(=O)N[C@@H](C)C(N)=O [Oct-(SEQ ID NO: 124)-NH2] (Octanoyl-KLAKLAKKLA-NH2) : 128 µg/mL

--- query ---
Ask: Item: CCCCCCCC(=O)N[C@@H](CCCCN)C(=O)N[C@H](C(=O)N[C@@H](C)C(=O)N[C@@H](CCCCN)C(=O)N[C@@H](CCCCN)C(=O)N[C@H](C(=O)N[C@@H](C)C(=O)N[C@@H](CCCCN)C(=O)N[C@H](C(=O)N[C@@H](C)C(=O)N[C@@H](CCCCN)C(=O)N[C@@H](CCCCN)C(=O)N[C@H](C(=O)N[C@@H](C)C(N)=O)[C@@H](C)CC)[C@@H](C)CC)[C@@H](C)CC)[C@@H](C)CC [Oct-(SEQ ID NO: 153)-NH2] (Octanoyl-KIAKKIAKIAKKIA-NH2) Test system: S.aureus strain ATCC 25923 Read-out: Minimal Inhibitory Concentration S Value: ?
Reply: 8 µg/mL

---

Minimal Inhibitory Concentration CA for assorted compounds
# Test system: C. albicans
# Assay type: cell-based
Where a SMILES comes first, the peptide text is derived from it. [ ]: non-standard residue; d: D form. The star is where a group is joined. Octanoyl = CCCCCCCC(=O)*; Orn = NCCC[C@H](N)C(=O)O
Report only the number, with the unit µg/mL understood.

The examples below pair each entry with its known result.
CCCCCCCC(=O)N[C@@H](CC(C)C)C(=O)N[C@@H](CCCN)C(=O)N[C@@H](CCCCN)C(=O)N[C@@H](CC(C)C)C(=O)N[C@@H](CC(C)C)C(=O)N[C@@H](CCCCN)C(=O)N[C@@H](CCCCN)C(=O)N[C@@H](CC(C)C)C(=O)N[C@@H](CCCCN)C(=O)N[C@@H](CCCCN)C(=O)N[C@@H](CC(C)C)C(N)=O [Oct-(SEQ ID NO: 141)-NH2] (Octanoyl-L[Orn]KLLKKLKKL-NH2) : 32
CCCCCCCC(=O)N[C@@H](CCCCN)C(=O)N[C@@H](CCCCN)C(=O)N[C@@H](Cc1ccccc1)C(=O)NCC(=O)N[C@@H](CCCCN)C(=O)N[C@@H](CCCCN)C(=O)N[C@@H](Cc1ccccc1)C(=O)N[C@H](C(=O)N[C@@H](CCCCN)C(=O)N[C@H](C(=O)N[C@@H](CC(C)C)C(=O)N[C@@H](CCCCN)C(=O)N[C@@H](CCCCN)C(N)=O)[C@@H](C)CC)C(C)C [Oct-(SEQ ID NO: 135)-NH2] (Octanoyl-KKFGKKFVKILKK-NH2) : 64

--- query ---
Ask: Item: CCCCCCCC(=O)N[C@@H](CC(C)C)C(=O)N[C@@H](CCCCN)C(=O)N[C@@H](CCCCN)C(=O)N[C@@H](CC(C)C)C(=O)N[C@@H](CC(C)C)C(=O)N[C@@H](CCCCN)C(=O)N[C@@H](CC(C)C)C(=O)N[C@@H](CC(C)C)C(=O)N[C@@H](CCCCN)C(N)=O [Oct-(SEQ ID NO: 138)-NH2] (Octanoyl-LKKLLKLLK-NH2) Test system: C. albicans Read-out: Minimal Inhibitory Concentration CA Value: ?
Reply: 64

---

Minimal Inhibitory Concentration CA for assorted molecules
# System: C. albicans
# Assay type: cell-based
Where a SMILES comes first, the peptide text is derived from it. The star is where a group is joined. Octanoyl = CCCCCCCC(=O)*; Pentanoyl = CCCCC(=O)*
The reply must contain the numeric value and, after it, the unit.

The examples below pair each entry with its known result.
CCCCC(=O)N[C@@H](CC(C)C)C(=O)N[C@@H](CCCCN)C(=O)N[C@@H](CCCCN)C(=O)N[C@@H](CC(C)C)C(=O)N[C@@H](CC(C)C)C(=O)N[C@@H](CCCCN)C(=O)N[C@@H](CCCCN)C(=O)N[C@@H](CC(C)C)C(=O)N[C@@H](CCCCN)C(=O)N[C@@H](CCCCN)C(=O)N[C@@H](CC(C)C)C(N)=O [Val-(SEQ ID NO: 110)-NH2] (Pentanoyl-LKKLLKKLKKL-NH2) : 32 µg/mL
CCCCCCCC(=O)N[C@@H](CCCCN)C(=O)N[C@@H](Cc1ccccc1)C(=O)N[C@@H](C)C(=O)N[C@@H](CCCCN)C(=O)N[C@@H](Cc1ccccc1)C(=O)N[C@@H](C)C(=O)N[C@@H](CCCCN)C(=O)N[C@@H](CCCCN)C(=O)N[C@@H](Cc1ccccc1)C(=O)N[C@@H](C)C(N)=O [Oct-(SEQ ID NO: 121)-NH2] (Octanoyl-KFAKFAKKFA-NH2) : 256 µg/mL
CCCCCCCC(=O)N[C@@H](CC(C)C)C(=O)N[C@@H](CC(C)C)C(=O)N[C@@H](CCCCN)C(=O)N[C@@H](CCCCN)C(=O)N[C@@H](CC(C)C)C(=O)N[C@@H](CCCCN)C(=O)N[C@@H](CCCCN)C(=O)N[C@@H](CC(C)C)C(N)=O [Oct-(SEQ ID NO: 107)-NH2] (Octanoyl-LLKKLKKL-NH2) : 128 µg/mL
CCCCCCCC(=O)N[C@@H](CC(C)C)C(=O)N[C@@H](CCCCN)C(=O)N[C@@H](CCCCN)C(=O)N[C@@H](CC(C)C)C(=O)N[C@@H](CC(C)C)C(=O)N[C@@H](CCCCN)C(=O)N[C@@H](CCCCN)C(=O)N[C@@H](CC(C)C)C(=O)N[C@@H](CCCCN)C(=O)N[C@@H](CCCCN)C(=O)N[C@@H](CC(C)C)C(=O)N[C@@H](CS)C(N)=O [Oct-(SEQ ID NO: 133)-NH2] (Octanoyl-LKKLLKKLKKLC-NH2) : 128 µg/mL

--- query ---
Ask: Quick check: Minimal Inhibitory Concentration CA of CCCCCCCC(=O)N[C@@H](CCCCN)C(=O)N[C@@H](Cc1ccccc1)C(=O)N[C@@H](C)C(=O)N[C@@H](CCCCN)C(=O)N[C@@H](CCCCN)C(=O)N[C@@H](Cc1ccccc1)C(=O)N[C@@H](C)C(=O)N[C@@H](CCCCN)C(=O)N[C@@H](Cc1ccccc1)C(=O)N[C@@H](C)C(=O)N[C@@H](CCCCN)C(=O)N[C@@H](CCCCN)C(=O)N[C@@H](Cc1ccccc1)C(=O)N[C@@H](C)C(N)=O [Oct-(SEQ ID NO: 125)-NH2] (Octanoyl-KFAKKFAKFAKKFA-NH2) ?
Reply: 64 µg/mL

---

Minimal Inhibitory Concentration P for assorted compounds
# Test system: P. aeruginosa strain ATCC 27853
# Format: cell-based
# test-settings: P. aeruginosa strain ATCC 27853; Table I
Where a SMILES comes first, the peptide text is derived from it. [ ]: non-standard residue; d: D form. The star is where a group is joined. Octanoyl = CCCCCCCC(=O)*; Orn = NCCC[C@H](N)C(=O)O
Report only the number, with the unit µg/mL understood.

The examples below pair each entry with its known result.
CCCCCCCC(=O)N[C@@H](CCCCN)C(=O)N[C@@H](CC(C)C)C(=O)N[C@@H](C)C(=O)N[C@@H](CCCCN)C(=O)N[C@@H](CC(C)C)C(=O)N[C@@H](C)C(=O)N[C@@H](CCCCN)C(=O)N[C@@H](CCCCN)C(=O)N[C@@H](CC(C)C)C(=O)N[C@@H](C)C(N)=O [Oct-(SEQ ID NO: 124)-NH2] (Octanoyl-KLAKLAKKLA-NH2) : 64
CCCCCCCC(=O)N[C@@H](CCCCN)C(=O)N[C@H](C(=O)N[C@@H](C)C(=O)N[C@@H](CCCCN)C(=O)N[C@@H](CCCCN)C(=O)N[C@H](C(=O)N[C@@H](C)C(=O)N[C@@H](CCCCN)C(=O)N[C@H](C(=O)N[C@@H](C)C(=O)N[C@@H](CCCCN)C(=O)N[C@@H](CCCCN)C(=O)N[C@H](C(=O)N[C@@H](C)C(N)=O)[C@@H](C)CC)[C@@H](C)CC)[C@@H](C)CC)[C@@H](C)CC [Oct-(SEQ ID NO: 153)-NH2] (Octanoyl-KIAKKIAKIAKKIA-NH2) : 8
CCCCCCCC(=O)N[C@@H](CCCCN)C(=O)N[C@@H](CCCCN)C(=O)N[C@@H](CC(C)C)C(=O)N[C@@H](C)C(=O)N[C@@H](CCCCN)C(=O)N[C@@H](CC(C)C)C(=O)N[C@@H](C)C(=O)N[C@@H](CCCCN)C(=O)N[C@@H](CCCCN)C(=O)N[C@@H](CC(C)C)C(=O)N[C@@H](C)C(N)=O [Oct-(SEQ ID NO: 123)-NH2] (Octanoyl-KKLAKLAKKLA-NH2) : 16

Ask: Quick check: Minimal Inhibitory Concentration P of CCCCCCCC(=O)N[C@@H](CCCN)C(=O)N[C@@H](CCCN)C(=O)N[C@@H](CC(C)C)C(=O)N[C@@H](CC(C)C)C(=O)N[C@@H](CCCN)C(=O)N[C@@H](CCCN)C(=O)N[C@@H](CC(C)C)C(=O)N[C@@H](CCCN)C(=O)N[C@@H](CCCN)C(=O)N[C@@H](CC(C)C)C(N)=O [Oct-(SEQ ID NO: 143)-NH2] (Octanoyl-[Orn][Orn]LL[Orn][Orn]L[Orn][Orn]L-NH2) ?
Reply: 2
